Every entry's value here was drawn from paper PMC6383769.

pKi: −log10 of the molar value.
Endpoint: pKi. System: human D3 (Homo sapiens, UniProt P35462). Items follow.
Sequence (P35462 whole entry): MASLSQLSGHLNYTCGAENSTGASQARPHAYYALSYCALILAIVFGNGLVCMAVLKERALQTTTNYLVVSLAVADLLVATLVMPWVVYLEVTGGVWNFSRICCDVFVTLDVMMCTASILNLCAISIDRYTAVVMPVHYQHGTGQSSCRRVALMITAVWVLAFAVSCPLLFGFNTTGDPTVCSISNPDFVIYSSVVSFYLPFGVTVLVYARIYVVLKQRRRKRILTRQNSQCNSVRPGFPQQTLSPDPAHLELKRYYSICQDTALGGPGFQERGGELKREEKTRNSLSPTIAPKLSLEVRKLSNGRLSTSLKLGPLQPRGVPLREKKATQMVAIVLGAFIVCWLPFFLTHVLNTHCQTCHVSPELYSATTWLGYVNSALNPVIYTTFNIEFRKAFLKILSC

// below: answered molecules
{"columns": ["RECORD SMILES", "pKi"],
 "data": [
  ["Cc1cccc(CCNCc2ccn(-c3ccccc3)n2)c1", 5.97],
  ["OC[C@H](Cc1ccc(F)cc1)NCc1ccn(-c2ccccc2)n1", 5.18],
  ["CCC[C@H](C)[C@H](CO)NCCc1nc(-c2ccc(Cl)cc2)no1", "< 5.00"],
  ["O=C(CN1C[C@@H](O)C[C@@H]1C1CC1)Nc1ccc(Br)cc1", "< 5.00"],
  ["CCCC[C@H](CN)NC(=O)Nc1cnn(-c2ccc(C)cc2C)c1", 5.23]
]}

For every item in the list below, what is its measured pKi?
1. C=C(C)COCCNC[C@H](O)Cc1ccc(C(F)(F)F)cc1
2. CC(C)N1C[C@H](C)[C@H](NC(=O)N2Cc3ccccc3[C@@H]2C)C1
3. C[C@H]1CN(C2CC2)C[C@H]1NC(=O)c1cc2cc([N+](=O)[O-])ccc2s1
4. O[C@]1(CNCc2cnn(-c3ccc(Br)cc3)c2)CCSC1
5. C[C@H]1CN(C2CC2)C[C@H]1NC(=O)c1cc2cc(Br)ccc2o1
6. C[C@H](N[C@H](CO)Cc1ccccc1)c1cc2c(s1)CCC2
7. C[C@@H]1CCCN(C(C)(C)CNc2nc(C3CC3)ns2)C1

RESULT:
1. < 5.00
2. < 5.00
3. < 5.00
4. < 5.00
5. < 5.00
6. < 5.00
7. < 5.00
